- PROCEDURE_SUMMARY: qHTS screen for small molecules that induce genotoxicity in human embryonic kidney (HEK293T) cells expressing luciferase-tagged ELG1; also: nearly all actives have a fitted effect of over 60% in size
- CONDITION_SET: HEK293T ELG1-luciferase reporter, luminescence, 16 h; series mostly up to 46 µM
In all, about 330,000 compounds went through this assay and about 4,200 (1.3%) were called active. About 6% were inconclusive and are not listed. Calls follow the shape of the dose curve; as a rule, active = well fitted activation curve with a large enough effect; inconclusive = small, poorly fitted or top-dose-only effect; inactive = no such curve, though single readings can be large or run the other way. This is one part of a sample in which actives are shown more often than they occur.
# output must be one of 1.0 = active, 0.0 = inactive

# count of solved cases: 3
>>> assigned_category("CSc1ccc(C#N)cc1NC(=O)c1cccc(Cl)c1")
0.0
>>> assigned_category("COc1ccc(-c2noc(-c3ccc(C)cc3)n2)cc1")
1.0
>>> assigned_category("NC(=O)c1c(NC(=O)c2ccccc2)sc2c1CCCC2")
1.0

Can you look up the reported call for Cc1ccc(-c2noc(CSc3nnc(-c4ccncc4)n3-c3ccc(F)cc3)n2)cc1 for me?
0.0

Status in this test for Cc1ccc(-c2noc(CC(c3ccccc3)c3ccccc3)n2)cc1 ?
0.0

Tell me the recorded outcome of this test for CC(=O)C(CC(=O)N1CCCC1)C(=O)Nc1ccc(Cl)cc1 (stereo unspecified) .
0.0

# outcome recorded in this test, key = COc1ccc(-c2noc(-c3cccc(OC)c3OC)n2)cc1OC
1.0

// return assay outcome for COc1ccc(-c2noc(CSc3ccc(C)cc3)n2)cc1
0.0

Can you look up the reported call for COc1ccc(-c2noc(CCCC(=O)NC3CCCC3)n2)cc1OC for me?
0.0

GET /call?item= Cc1ccc(-c2noc(-c3ccccc3C(=O)NCC3CCCO3)n2)cc1 (stereo unspecified) returns the recorded outcome of this test.
0.0

Which result was noted for this molecule in the test: Cc1ccc(C(=O)c2c(NC(=O)c3ccncc3)sc3c2CCCC3)cc1
0.0

====

- PROCEDURE_SUMMARY: qHTS screen for small molecules that induce genotoxicity in human embryonic kidney (HEK293T) cells expressing luciferase-tagged ELG1; also: nearly all actives have a fitted effect of over 60% in size
- CONDITION_SET: HEK293T ELG1-luciferase reporter, luminescence, 16 h; series mostly up to 46 µM
Among all 330,000 compounds or so, about 4,200 (1.3%) were called active. About 6% were inconclusive and are not listed. The call rests on the fitted dose curve; in most records, active means well fitted activation curve with a large enough effect; inconclusive means small, poorly fitted or top-dose-only effect; inactive means no such curve, though single readings can be large or run the other way. This excerpt belongs to a sample that is enriched for actives.
Hi! Could you answer with just one of these? active, inactive

Would you please look over these solved cases?
>>> assigned_category("CCC(CO)Oc1cc(NC(=O)c2cccc3ccccc23)c2ncn(C(C)C)c2c1 (stereo unspecified)")
"inactive"
>>> assigned_category("Cc1ccccc1OCC(=O)Nc1nc(C)c(C(=O)N(C)C)s1")
"inactive"

Just curious, what result did Cc1nn(C(=O)c2ccoc2C)c(N)c1-c1ccccc1 get here?
active

Record lookup: outcome of this test for Cc1occc1C(=O)Nc1cccc(S(=O)(=O)N2CCOCC2)c1 ?
inactive

Give the logged outcome of this assay for the following compound: COc1cccc(CC(=O)OCC(=O)NCc2ccc3c(c2)OCO3)c1
inactive

// param item: CN(c1ccccc1)S(=O)(=O)c1ccc(C(=O)NCCc2ccccc2)cc1 ; yields the recorded call
inactive

For this compound, state the assay outcome: COc1cc(SC)ccc1C(=O)NNC(=O)C1COc2ccccc2O1 (stereo unspecified)
inactive

====

- PROCEDURE_SUMMARY: qHTS screen for small molecules that induce genotoxicity in human embryonic kidney (HEK293T) cells expressing luciferase-tagged ELG1; also: nearly all actives have a fitted effect of over 60% in size
- CONDITION_SET: HEK293T ELG1-luciferase reporter, luminescence, 16 h; series mostly up to 46 µM
The campaign covered roughly 330,000 compounds. About 4,200 (1.3%) were called active. About 6% were inconclusive and are not listed. Calls follow the shape of the dose curve; as a rule, active = well fitted activation curve with a large enough effect; inconclusive = small, poorly fitted or top-dose-only effect; inactive = no such curve, though single readings can be large or run the other way. Only a selection was taken, and actives are over-represented in it overall.
I would appreciate it if you answered using one of these outcomes: t = active, f = inactive

>>> assigned_category("COc1ccc(-c2noc(CCC(=O)N3CCN(c4cccc(C)c4)CC3)n2)cc1")
"f"
>>> assigned_category("COC(=O)c1ccc(OC(=O)c2cnccn2)cc1")
"f"
>>> assigned_category("CCC(=O)N1CCCc2ccccc21")
"f"
>>> assigned_category("O=C(NCCCNC(=O)c1ccccc1Cl)c1cnccn1")
"f"

Entry Cc1cc(Cl)c(S(=O)(=O)Nc2ccc3c(c2)OCCO3)cc1OCC(N)=O : call = ?
t

State the result this test recorded for O=C(CN1CCN(c2ccccn2)CC1)N1CCc2ccccc21 .
f

Hi, sorry to bother you, what did the test record for O=C(N[C@H]1C/C=C\C(c2ccc(F)cc2)N(Cc2ccccc2)C(=O)C1)OCC1c2ccccc2-c2ccccc21 (some centres undefined) ?
f

# outcome recorded in this test, key = O=C(CSc1nc2ccccc2c(=O)n1-c1ccccc1F)N1CCOCC1
f

In this assay, the call recorded for O=C1NC(Cc2ccc(O)cc2)c2nc3ccc(Cl)cc3c(=O)n2-c2ccccc21 (centres undefined) was what?
f

Dear all, I need the recorded test outcome for Cc1cc(Cl)c(S(=O)(=O)N(C)C)cc1OCC(N)=O , thank you.
f

Any idea what this test logged for CC(=O)Nc1ccccc1NC(=O)c1cc(C)cc(C)c1 ?
f

Please let me know the test result on file for O=C(Nc1cc(S(=O)(=O)Nc2ccc(Cl)cc2)ccc1O)c1ccc(F)cc1F .
f

Hi, do you know how O=C(CSCc1ccccc1)N1CCc2ccccc21 came out in this test?
t

For this molecule, state the assay outcome: Cc1cccc(OCCC(=O)Nc2ccccc2C(N)=O)c1
f
